Data origin, for the record: paper PMC5379935

# TEST_TARGET: T1, Aae Hfq (Aquifex aeolicus, UniProt O66512 1-80)
# T1 sequence: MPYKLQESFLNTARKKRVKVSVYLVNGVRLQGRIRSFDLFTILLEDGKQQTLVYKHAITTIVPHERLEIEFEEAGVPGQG
# PROTOCOL_TEXT: fluorescence polarization; 10 mM Mg2+; per hexamer; 4-parameter fit, Hill 1.7; FP: 50 mM Tris pH 8.0, 500 mM NaCl, 5 nM FAM-RNA, +/- 10 mM MgCl2, 45 min, room temperature
# TEST_CONDITIONS: protein: recombinant; tags: 6xHis removed by thrombin; residual N-terminal G-2 S-1 H0; chain copies: 6; label: 5'-FAM; single strand
MEASUREMENT_NAME: Kd (nM)
Please respond with the number in nM and leave the unit unwritten.

Exercise: Quick one: Kd of UUUUUU (ssRNA) [FAM-U6] ?
Key: 2.1
